Read-out: UDP glucuronosyltransferase (UGT1A6), UGT1A6 (gene 54578)
EXPERIMENT DESCRIPTION: LTEA_HepaRG_UGT1A6: Life Technologies and Expression Analysis (LTEA) Assay for UDP glucuronosyltransferase (UGT1A6) using HepaRG (AID 2283539)
PROTOCOL CONDITIONS: mRNA level, 48 h; actives raise or lower the signal
The source made the active and inactive calls. The calls were made as follows: active = hit-call score of the fitted dose curve at least 0.9, where 1 is the maximum; inactive = score below 0.9.
ASSAY ENDPOINT: AC50

Recorded AC50, per entry:
COMPOUND | AC50
CO[C@H]1/C=C/O[C@@]2(C)Oc3c(C)c(O)c4c(O)c(c(/C=N/N5CCN(C)CC5)c(O)c4c3C2=O)NC(=O)/C(C)=C\C=C\[C@H](C)[C@H](O)[C@@H](C)[C@@H](O)[C@@H](C)[C@H](OC(C)=O)[C@@H]1C | inactive
Oc1ccccc1 | inactive
CCCCCc1ccc(N)cc1 | inactive
C[C@]12CC[C@@H]3c4ccc(O)cc4CC[C@H]3[C@@H]1CC[C@H]2O | inactive

Query: AC50; subject: Clc1ccccc1C(c1ccccc1)(c1ccccc1)n1ccnc1
15.8 µM (active)

Could you share which AC50 value was measured for Cc1cc(F)ccc1-c1cc(N2CC[C@@H](O)[C@H]2CO)ncc1N(C)C(=O)C(C)(C)c1cc(C(F)(F)F)cc(C(F)(F)F)c1 ?
inactive
